Where these numbers come from: a melting point compilation (Tetko et al.)

A collection of compounds and their measured melting point

Look over these answered cases.
compound	melting point
COc1cc(OC)cc(-c2nnc(S)n2N)c1	178 to 180 °C
CC(=O)c1ccc2c(c1)CC(=O)N2C	176 to 178 °C
Nc1ccnc(Oc2ccccc2)c1	52 to 54 °C
COc1ccc(Sc2ccc(N)cc2Cl)cc1	104 to 106 °C
O=C(O)c1nc(-c2ccccc2)oc1-c1ccccc1	193 to 195 °C
O=C(O)CNC(=O)C1c2ccccc2C(=O)N1C1CC1 (stereo not drawn)	242 to 244 °C
COC(=O)C(O)c1cccc(O)c1 (stereo not drawn)	124 to 126 °C
CC(=O)Nc1cccc(NC(=O)C2CCNCC2)c1	199 to 201 °C
CCCCCCC(NC)C(=O)O (stereo not drawn)	259 to 261 °C
OCc1cc2ccc(Br)cc2[nH]1	115 to 117 °C

Which melting point is reported for this compound? COc1ccccc1C1(C)CC1C(=O)O (stereo not drawn)
166 to 168 °C

Which melting point is reported for this compound? Cc1cccn2c(=O)cc(CCl)nc12
110 to 112 °C

Which melting point is reported for this compound? Nc1ccc(-c2nnc[nH]2)cc1
203 to 205 °C

---

A collection of compounds and their measured melting point

Look over these answered cases.
compound	melting point
CC(=O)N1CCN(c2ccccc2C=O)CC1	86 to 88 °C
Cc1ccc(/C=C/c2cc(C(=O)O)c3cc(Br)ccc3n2)cc1	306 to 308 °C

Please turn your attention to the following entry.
Which melting point is reported for this compound? O=S(=O)(Nc1ccccc1Br)N1CCCC1
69 to 71 °C

---

A collection of compounds and their measured melting point

compound	melting point
CC(Oc1ccc(Br)cc1)C(=O)O (stereo unspecified)	118 to 120 °C
NC(=NO)c1cccc(CN2CCOCC2)c1	155 to 157 °C
Cc1cc(C(=O)CC#N)c(C)n1CC(F)(F)F	150 to 152 °C
O=C(O)/C=C/c1cn(-c2ccccc2)nc1-c1ccc(Cl)s1	200 to 202 °C

Please turn your attention to the following entry.
Which melting point is reported for this compound? Cn1ncc2c(=O)[nH]c(CCl)nc21
232 to 234 °C

---

A collection of compounds and their measured melting point

Which melting point is reported for this compound? CN(C)C(=O)c1ccccc1O
161 to 163 °C

---

property: melting point

Look over these answered cases.
compound	melting point
Cc1ccc(NS(C)(=O)=O)c(N)c1	116 to 118 °C
CN(C)S(=O)(=O)c1ccc(C#N)cc1	128 to 130 °C
CC(C)(C(=O)O)c1cccc(Cl)c1	65 to 67 °C
Cc1nnc(Br)s1	106 to 108 °C
O=C(c1cc(Br)c[nH]1)N1CCCC1	210 to 212 °C

Which melting point is reported for this compound? COC(=O)c1cc(O)ccc1[N+](=O)[O-]
101 to 103 °C

Which melting point is reported for this compound? COC(=O)c1sccc1N=[N+]=[N-]
69 to 71 °C

Which melting point is reported for this compound? O=C(O)c1ccccc1NCCC1=CCCCC1
129 to 131 °C

Which melting point is reported for this compound? CN(CC(=O)O)S(=O)(=O)c1ccc2c(c1)OCCO2
141 to 143 °C

Which melting point is reported for this compound? O=C(O)Cc1cc2ccccc2[nH]c1=O
278 to 280 °C

Which melting point is reported for this compound? O=C(O)C1CCN(C(=O)CCc2ccccc2)CC1
107 to 109 °C

Which melting point is reported for this compound? CCn1c(S)nc2ccccc21
135 to 137 °C
